Each item that follows carries a reported soluble fraction (log2).
assayProtocol: soluble fraction after stress (log2 fold change); higher = more stays soluble; pooled small domains, quantitative proteomics;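 note: 20 min heating vs room temperature control held 20 min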
conditionSet: stress: 75 degC
readoutLabel: soluble fraction (log2)

> print(dat)
                                sequencecode      val
 1  HMEGIWAVFYDGKPINLKSSSLVANYPGPKYKKVSFSNPGHAENLAKKLNAQHNTDKFGVYLLKSGDKFS   -0.113
 2  HMKPSNLTSDERTQLLAQLKTAMGSDQYNQLRRQVGEEKLLEYVLDNVPGIQEEILGNRAVQENIDLH   0.0107
 3  HMGKAVTLEEARAIIQAKVPGASPDMIQIWEEHGDGRGRYEGELSYNNMKYEFEMDPKTGIIFDWNA  -0.0538
 4  HMKNLTERQQQIIALISGNPLITRAEIASAIGFSVKTIERELSILSEIVSYVGSKKGGHWEIQT    -2.66
 5  HMSDEIQLQFIQISIFKDHPWADMQIKDMNIIPDLLIVMILRDGERIIPNGNTRIMPGDMVIITAMSANT    -2.54
 6  HMDDPQAELLARAVRRVALAAAERTRRNEYGGVYLGLFRQFGISSYRRTPPARLHEALEWLERWRGDLM   -0.134
 7  HMDWFDELKVSTDDSGRVTAPEESEFMFQTSNEKIFAGGDMVRGSDLVVTAIWEGRQAAEGIMDYLD    -0.02
 8  HMIKEVGYEKFMQMTEEEDIGRVEIDQEENQITFTDKDETAIYKTGMVDDPDLTERLYDAGAEFS   0.0721
 9  HMSGIQNNFITRLKKVLAPTIGIAEEISDLLNISIDSAYRRIRGETDFTFEEIYIITRKHKISIDEIYG    -3.88
10  HMYFEDEELDRFVGTPAGAYTEEDVEEFRDVLLSLDIEEVPSWVRSLQLRGIDFPETLRPELYLL    -3.01
11  HMAKSKYETHVLPNLDKIIKWAKAGATAKEIAANLHIAYSTFRKYLDEGQEGDERYAALSAAFAQA  -0.0762
12  HMAADWTAIKLAYVNGGMSMRELAQRFHVGAAGLMKRAAKEGWEAERQQNSAKVSNAAQMLIN    0.049
13  HMFVVVPDLIGKTINQFEEDLSELNLKYVVSDSGNFNPEFKINAVLDQSPKANSKVKDGRKIYLTLNAS   -0.434
14  HMGQGAASAPLRELGVDPVSEKQMVLKDGRFGPYVTDGETNASLRKGDEVETITDERASELLQMRRDAGPS   -0.139
15  HMSKQEFVDRLRVSLSGKISPASVEDNARYYEDYINTHIRLGEPEEDVLEGLGDPRLIARSIVAAESV  -0.0989
16  HMVVLPGEVVALKIIQTGSSKDQGVGYLEDGTMVVVDGAKNSIGKTIEIQISRSHQTVAGRMLFGIAMS    -2.72
17  HMTSPQGIERFLASGVIEGVGKAMAARIVAVFGGQTLEIIEKQPHRLREVRGIGVKTAEKIHASYQEKA   -0.841
18  HMKLGYTVHGNVVTVKAVANGISLYNTIGQKVAESTDGQTVKAPAHGVYILSVQGKSGSRETAKIVI    -1.67
19  HMKYYIYQGVGASGELTKIAEVTDQKTYTVTGLQAKTTYRFAVSSYNGLRESTKSNIVTVTT   -0.134
20  HMGNYRVIKWGMQGDDVKLMQQMLINRGYVLSATGKYASRTLKAIMAFQEANGLKADGIVGKRTWNKLL    -2.78
21  HMNFEIEVTENGKRIDSYLAEELDLSRSKVQKLIKQELVTVNGKVVSNNYNVKLGDTILVNDD    0.113
22  HMGGTTLIAKQATVTGDIQFSSNLDIEGRVVGAISVEPGKEAMLHVVEGGSVEGEIRVPSAVINGKVTGDI   0.0791
23  HMKDASEFLGAKGKTITPLRPTGAAVINGEKVDVLAEGEFIPKNAEIVVIKVEGSKIIVRNANN   -0.061
24  HMENTIESLLKAKGFNDIIVTVSDKQVDVVVSDKEIADNKRAQIEDVIKRKTGLEASAITITPA    0.127
25  HMKDGMRVYITYHDSEEEPEKPIGDGTTKGWHTNSTASVVWISQKVAESADLGIWGDPIRIKGEA   0.0608
